target: SWI/SNF-related matrix-associated actin-dependent regulator of chromatin subfamily A member 2 (Homo sapiens); assay: Luminescence-based cell-based high throughput dose response assay to identify activators of the function of SWI/SNF related, matrix associated, actin dependent regulator of chromatin, subfamily a, member 2 (SMARCA2, BRM).; format: functional
Sequence (P51531 whole entry): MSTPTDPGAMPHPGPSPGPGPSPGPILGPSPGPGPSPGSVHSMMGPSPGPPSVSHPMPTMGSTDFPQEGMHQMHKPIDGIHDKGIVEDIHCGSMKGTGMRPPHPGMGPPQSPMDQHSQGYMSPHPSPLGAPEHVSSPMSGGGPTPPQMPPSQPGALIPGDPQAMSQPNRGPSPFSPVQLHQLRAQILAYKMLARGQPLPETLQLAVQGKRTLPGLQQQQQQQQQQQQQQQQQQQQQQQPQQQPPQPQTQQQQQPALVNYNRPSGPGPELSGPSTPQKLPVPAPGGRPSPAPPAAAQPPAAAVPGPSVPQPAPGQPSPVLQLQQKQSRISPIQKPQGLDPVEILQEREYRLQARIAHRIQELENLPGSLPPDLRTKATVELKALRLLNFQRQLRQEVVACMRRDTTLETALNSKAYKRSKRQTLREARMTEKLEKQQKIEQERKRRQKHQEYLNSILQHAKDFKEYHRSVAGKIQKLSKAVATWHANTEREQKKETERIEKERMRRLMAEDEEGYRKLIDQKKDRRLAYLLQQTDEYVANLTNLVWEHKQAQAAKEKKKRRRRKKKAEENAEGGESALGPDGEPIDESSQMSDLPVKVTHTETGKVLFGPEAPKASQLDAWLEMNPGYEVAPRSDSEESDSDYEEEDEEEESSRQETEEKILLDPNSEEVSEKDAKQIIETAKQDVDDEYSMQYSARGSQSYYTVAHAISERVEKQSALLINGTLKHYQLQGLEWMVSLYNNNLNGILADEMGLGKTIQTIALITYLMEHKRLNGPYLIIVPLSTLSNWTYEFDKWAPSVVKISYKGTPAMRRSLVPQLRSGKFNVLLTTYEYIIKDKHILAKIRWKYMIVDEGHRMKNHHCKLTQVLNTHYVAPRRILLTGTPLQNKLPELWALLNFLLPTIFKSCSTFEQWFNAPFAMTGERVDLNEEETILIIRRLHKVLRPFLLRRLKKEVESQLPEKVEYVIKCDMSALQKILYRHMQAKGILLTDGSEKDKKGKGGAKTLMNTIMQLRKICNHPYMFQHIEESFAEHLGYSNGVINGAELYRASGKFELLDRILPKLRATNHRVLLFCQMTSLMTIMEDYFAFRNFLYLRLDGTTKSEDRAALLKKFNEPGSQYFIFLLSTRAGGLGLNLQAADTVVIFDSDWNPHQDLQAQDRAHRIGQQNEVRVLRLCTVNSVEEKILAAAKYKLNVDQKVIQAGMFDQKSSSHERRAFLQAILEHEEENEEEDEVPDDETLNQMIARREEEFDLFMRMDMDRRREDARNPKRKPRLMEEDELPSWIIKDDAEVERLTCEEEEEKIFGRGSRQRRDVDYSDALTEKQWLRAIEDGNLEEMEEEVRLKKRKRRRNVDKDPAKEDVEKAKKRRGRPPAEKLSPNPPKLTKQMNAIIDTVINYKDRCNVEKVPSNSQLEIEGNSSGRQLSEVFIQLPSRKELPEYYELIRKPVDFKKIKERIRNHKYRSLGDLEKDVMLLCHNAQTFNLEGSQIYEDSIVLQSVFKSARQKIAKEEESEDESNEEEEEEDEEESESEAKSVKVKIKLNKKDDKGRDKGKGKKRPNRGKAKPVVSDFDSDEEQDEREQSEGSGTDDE
Activity calls are given as the source filed them.
recorded-endpoint: EC50

Return reported EC50; argument: `CC(=O)c1ccc(-c2cnc3c(NC=O)cc(-c4ccc(N5CCN(C)CC5)cc4)cn23)cc1`
56 µM (inactive)

Return reported EC50; argument: `CCN(CC)C(=O)CSc1nnc(-c2cccc(OC)c2)o1`
> 91.1 µM (inactive)

Return reported EC50; argument: `CS(=O)(=O)c1ccc(C(=O)OCC(=O)N2CCOCC2)cc1[N+](=O)[O-]`
> 91.2 µM (inactive)

Return reported EC50; argument: `Cc1cccn2c(=O)c3cc(C(=O)NC4CCCC4)c(=N)n(C4CCCCC4)c3nc12`
> 91.2 µM (inactive)

---

assay: cells; format: functional
Calls of active or inactive are those of the source.
recorded-endpoint: IC50

Return reported IC50; argument: COc1cccc2c1C(CO)N1C(C#N)C3CC(C(=O)O)C(C1C2)N3C (stereo unspecified)
2.76 µM (active)

Return reported IC50; argument: `Nc1ccc(Br)c2cccnc12`
> 50 µM (active)

Return reported IC50; argument: `Cc1cc(NCCCn2ccnc2)n2ncc(-c3ccc(Cl)cc3)c2n1`
11.1 µM (active)

Return reported IC50; argument: CN1CCC(O)(c2ccc(Cl)cc2)C(C(=O)c2ccc(Cl)cc2)C1 (stereo unspecified)
38.5 µM (active)

Return reported IC50; argument: `O=C1c2cccc3c([N+](=O)[O-])ccc(c23)C(=O)N1c1ccccn1`
20.3 µM (active)

Return reported IC50; argument: `NC1=NC[C@H](Cc2ccc(O)cc2)N1CCc1cccc2ccccc12`
9.5 µM (active)

---

tested on: Streptococcus sp. 'group A'; experiment: growth inhibition of control SK(-) GAS strain, dose response, counter-screen for streptokinase expression inhibitor project, luminescence, kanamycin, BacTiterGlo, confirmation (AID 1900); type: functional, organism-based
Activity calls are given as the source filed them.
For each of the compounds below, state its EC50.

Return reported EC50; argument: `Cc1ccc(NC(=S)c2nc3ccccc3[nH]2)cc1`
3.7 µM (active)

Return reported EC50; argument: `CCOc1ccc2nc(NC(=O)CN3CCC(n4nnc5cc(C(F)(F)F)ccc54)CC3)sc2c1`
68.6 µM (active)

Return reported EC50; argument: `Clc1ccc(CSc2nccn2Cc2ccccc2)cc1`
33 µM (active)

Return reported EC50; argument: `Cc1ccc(C(=O)c2c(C)oc3c2C(=O)C(=O)c2ccccc2-3)cc1`
0.566 µM (active)

Return reported EC50; argument: `Cc1ccc(Cn2nnc3c(O)nc(C4CCN(S(=O)(=O)c5cc(C)ccc5C)CC4)nc32)cc1`
9.94 µM (active)

Return reported EC50; argument: `Cc1ccc(Oc2nc(-c3ccccn3)nc3ccccc23)cc1`
8.8 µM (active)

Return reported EC50; argument: `O=C(N/N=C/c1cc([N+](=O)[O-])cc(Br)c1O)C12CC3CCC(CC(C3)C1)C2`
4.67 µM (active)

---

Molecular target: Sentrin-specific protease 6 (Homo sapiens, UniProt Q9GZR1);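 note: Luminescence-based dose-response confirmatory assay of SENP6 inhibition, following up an ultra-high-throughput screen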
Sequence (Q9GZR1 whole entry): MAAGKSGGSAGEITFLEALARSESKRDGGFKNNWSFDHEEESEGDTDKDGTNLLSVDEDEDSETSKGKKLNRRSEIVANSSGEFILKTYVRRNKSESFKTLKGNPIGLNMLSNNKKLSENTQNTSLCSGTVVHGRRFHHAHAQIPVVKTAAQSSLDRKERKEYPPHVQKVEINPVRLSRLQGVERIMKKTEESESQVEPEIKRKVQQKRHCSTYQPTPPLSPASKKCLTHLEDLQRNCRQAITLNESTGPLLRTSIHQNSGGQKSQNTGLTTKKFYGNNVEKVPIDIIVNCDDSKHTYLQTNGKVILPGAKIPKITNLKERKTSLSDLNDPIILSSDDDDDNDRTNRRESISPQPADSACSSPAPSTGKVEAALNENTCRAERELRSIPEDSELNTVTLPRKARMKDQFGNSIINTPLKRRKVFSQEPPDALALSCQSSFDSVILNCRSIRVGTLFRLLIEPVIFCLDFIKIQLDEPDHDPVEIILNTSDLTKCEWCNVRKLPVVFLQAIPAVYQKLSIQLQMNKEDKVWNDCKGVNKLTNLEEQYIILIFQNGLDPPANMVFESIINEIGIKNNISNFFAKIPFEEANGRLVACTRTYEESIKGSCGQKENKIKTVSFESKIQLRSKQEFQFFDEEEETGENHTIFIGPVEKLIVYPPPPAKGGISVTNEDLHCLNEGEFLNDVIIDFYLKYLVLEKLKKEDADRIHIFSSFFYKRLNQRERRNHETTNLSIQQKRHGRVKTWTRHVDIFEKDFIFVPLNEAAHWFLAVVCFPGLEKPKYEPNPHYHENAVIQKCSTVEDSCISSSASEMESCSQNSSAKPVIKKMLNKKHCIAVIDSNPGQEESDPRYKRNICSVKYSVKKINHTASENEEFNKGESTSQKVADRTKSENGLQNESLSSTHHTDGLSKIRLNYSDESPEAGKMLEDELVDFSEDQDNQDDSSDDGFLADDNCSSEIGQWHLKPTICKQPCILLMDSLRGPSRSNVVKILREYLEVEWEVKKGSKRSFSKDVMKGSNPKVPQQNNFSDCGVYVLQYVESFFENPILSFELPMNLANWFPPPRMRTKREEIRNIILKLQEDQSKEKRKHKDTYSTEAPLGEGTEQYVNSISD
Assay type: functional
The source made the active and inactive calls.
Your reply should match one of these outcome classes. y (active), n (inactive)

Please indicate how the test categorized `Cc1ccc(S(=O)(=O)NC(=NC(S)=Nc2ccccc2)c2ccccc2)cc1` .
y

Please indicate how the test categorized `c1ccc(N=Nc2ccc3cccccc2-3)cc1` .
y

Please indicate how the test categorized `O=C1C(O)=C/C(=N\c2ccccc2O)c2ccccc21` .
y

Please indicate how the test categorized `Cc1ccc(C(=O)c2c(C)oc3c2C(=O)C(=O)c2ccccc2-3)cc1` .
y

Please indicate how the test categorized `Cc1cnc(NC(=O)c2sc3ccccc3c2Cl)s1` .
n

Please indicate how the test categorized `Cc1ccc(C(=O)COC(=O)c2ccc(Cl)c(N)c2)s1` .
y

Please indicate how the test categorized `Nc1ccc(Br)c2cccnc12` .
y

---

For each of the compounds below, state its EC50.
Target: Short transient receptor potential channel 4 (Mus musculus, UniProt Q9QUQ5)
Sequence (Q9QUQ5 whole entry): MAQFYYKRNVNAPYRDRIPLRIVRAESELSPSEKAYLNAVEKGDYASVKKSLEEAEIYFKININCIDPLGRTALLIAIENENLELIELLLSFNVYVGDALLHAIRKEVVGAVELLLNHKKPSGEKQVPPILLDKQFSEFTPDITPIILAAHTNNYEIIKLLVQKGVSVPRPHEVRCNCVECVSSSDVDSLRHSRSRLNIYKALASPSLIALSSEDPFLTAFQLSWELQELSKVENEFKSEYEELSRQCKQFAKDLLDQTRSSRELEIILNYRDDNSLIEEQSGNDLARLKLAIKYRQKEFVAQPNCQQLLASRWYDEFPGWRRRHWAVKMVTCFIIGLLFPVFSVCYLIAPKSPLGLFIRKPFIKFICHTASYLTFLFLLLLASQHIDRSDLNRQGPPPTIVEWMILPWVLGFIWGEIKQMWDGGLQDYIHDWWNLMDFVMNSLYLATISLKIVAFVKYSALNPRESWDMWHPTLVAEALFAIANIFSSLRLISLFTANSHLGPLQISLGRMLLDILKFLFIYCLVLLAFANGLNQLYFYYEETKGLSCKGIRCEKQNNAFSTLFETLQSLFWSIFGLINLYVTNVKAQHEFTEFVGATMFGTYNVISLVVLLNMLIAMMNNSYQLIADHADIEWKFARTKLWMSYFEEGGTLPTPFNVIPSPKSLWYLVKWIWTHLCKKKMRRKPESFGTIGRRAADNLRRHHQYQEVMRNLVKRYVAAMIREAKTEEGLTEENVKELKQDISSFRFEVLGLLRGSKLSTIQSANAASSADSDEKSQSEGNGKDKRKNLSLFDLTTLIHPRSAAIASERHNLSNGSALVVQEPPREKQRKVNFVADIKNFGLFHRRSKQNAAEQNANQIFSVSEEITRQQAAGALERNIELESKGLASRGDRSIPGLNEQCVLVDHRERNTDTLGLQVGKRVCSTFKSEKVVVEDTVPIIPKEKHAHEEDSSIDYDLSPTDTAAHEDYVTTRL
Test: mouse TRPC4 channel inhibitors, dose response, cell-based, HEK293 TRPC4/mu-opioid, Fluo-4 calcium (AID 434942);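 note: potency of inhibitors blocking the TRPC4 calcium response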
Type: functional
Calls of active or inactive are those of the source.

Item `Cc1ccc(NC(=O)CN2CCc3ccccc3C2)cc1F` with Short transient receptor potential channel 4 (Mus musculus, UniProt Q9QUQ5) - EC50?
6.68 µM (active)

Item `OCc1ccccc1CNCc1ccccc1` with Short transient receptor potential channel 4 (Mus musculus, UniProt Q9QUQ5) - EC50?
2.99 µM (active)

Item COc1ccc(C(CNC(=O)c2oc3ccc(Cl)cc3c2C)N2CCCCC2)cc1 (configuration not stated) with Short transient receptor potential channel 4 (Mus musculus, UniProt Q9QUQ5) - EC50?
15 µM (active)

Item COc1cccc(O)c1CN1CCCC(C(=O)c2sccc2C)C1 (configuration not stated) with Short transient receptor potential channel 4 (Mus musculus, UniProt Q9QUQ5) - EC50?
3.35 µM (active)

Item C=CCc1ccccc1OCC(O)CN1CCN(c2ccccc2OC)CC1 (configuration not stated) with Short transient receptor potential channel 4 (Mus musculus, UniProt Q9QUQ5) - EC50?
5.31 µM (active)

Item `Cc1c(N)c(C(C)(C)C)cc(C(C)(C)C)c1[N+](=O)[O-]` with Short transient receptor potential channel 4 (Mus musculus, UniProt Q9QUQ5) - EC50?
4.22 µM (active)

Item CCC1CCCCN1CCN1C(=O)C2C(C(=O)Nc3ccc(OC)cc3)C3C=CC2(O3)C1C(=O)NC1CCCCC1 (configuration not stated) with Short transient receptor potential channel 4 (Mus musculus, UniProt Q9QUQ5) - EC50?
0.0947 µM (active)
